pIC50: −log10 of the molar value.
# pIC50 measurements, system: UniProtKB P49841
# Sequence (P49841 whole entry): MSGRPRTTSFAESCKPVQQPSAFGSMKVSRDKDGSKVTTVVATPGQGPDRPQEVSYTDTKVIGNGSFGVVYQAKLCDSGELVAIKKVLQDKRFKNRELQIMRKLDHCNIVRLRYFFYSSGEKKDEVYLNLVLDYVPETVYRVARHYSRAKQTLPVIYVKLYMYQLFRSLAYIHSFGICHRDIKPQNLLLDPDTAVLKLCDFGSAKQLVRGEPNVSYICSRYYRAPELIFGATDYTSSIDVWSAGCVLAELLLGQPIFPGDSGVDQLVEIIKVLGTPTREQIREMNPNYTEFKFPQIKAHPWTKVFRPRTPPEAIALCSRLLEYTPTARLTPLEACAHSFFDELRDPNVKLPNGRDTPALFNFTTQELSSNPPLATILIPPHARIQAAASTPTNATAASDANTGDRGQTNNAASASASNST

Dear colleague, I am looking for the recorded pIC50 of the following molecule: CC1(C)CC(=O)C2=C(C1)NC1N=NC=C1C21CCCN(CC(F)F)CC1 (stereo not drawn)
6.00 to 7.00

What pIC50 value was documented for this molecule, CCC1(c2cccc(C(F)(F)F)c2)C2=C(N=NC2)NC2=C1C(=O)NC2C (stereo not drawn) ?
5.30 to 6.00

Value lookup for pIC50; key = `C[C@H]1CCC[C@]2(C1)C1=C(N=NC1)NC1=C2C(=O)CC(C)(C)C1`
6.00 to 7.00

Can you share its pIC50? I mean this molecule: CC[C@@]1(c2cccc(-c3cnn(-c4ccccc4)c3C(F)(F)F)c2)C2=CN=NC2NC2=C1C(=O)NC(C)(C)C2 (stereo partly drawn)
6.00 to 7.00

Fill in the blank: the reported pIC50 of Cc1cc(C)cc(C(=O)N2CC3(C2)CC2(CO3)C3=C(N=NC3)NC3=C2C(=O)CC(C)(C)C3)c1 (stereo not drawn) is ____.
> 7.00

Which pIC50 reading was recorded for the molecule CCC1(c2cccc(-c3cnn4c3CCCC4)c2)C2=C(CC(C)(C)NC2=O)NC2N=NC(C(F)(F)F)=C21 (stereo not drawn) ?
> 7.00

What does the data say about its pIC50? Entry: CC[C@@]1(c2cccc(C3=C4CC=C(Cl)C=C4N=CC3)c2)C2=CN=NC2NC2=C1C(=O)NC(C)(C)C2 (stereo partly drawn)
6.00 to 7.00

Item `COc1ccccc1S(=O)(=O)N1CC2(C1)C1=C(N=NC1)NC1=C2C(=O)CC(C)(C)C1` has what recorded pIC50?
> 7.00

Which pIC50 is reported for this molecule? CCC1(c2cccc(N(C)C(=O)Cc3ccccc3)c2)C2=CN=NC2NC2=C1C(=O)CC(C)(C)C2 (stereo not drawn)
> 7.00

Which pIC50 value is on record for `CC1(C)CC(=O)C2=C(C1)NC1=C(CN=N1)C21CN(c2ccccn2)C1` ?
5.30 to 6.00

I have this molecule here, CC1(C)CC(=O)C2=C(C1)NC1=C(CN=N1)C21COC2(CN(C(=O)c3ccc(F)cc3)C2)C1 (stereo not drawn) , and I need its recorded pIC50.
> 7.00

Which pIC50 reading was recorded for the molecule CC[C@]1(c2cccc(C(F)(F)F)c2)C2=CN=NC2NC2=C1C(=O)NCC2 (stereo partly drawn) ?
5.30 to 6.00

So what does the record say about pIC50 for CC[C@]1(c2cccc([C@@H]3CCOC(C)(C)C3)c2)C2=CN=NC2NC2=C1C(=O)CC(C)(C)C2 (stereo partly drawn) ?
6.00 to 7.00

###

experimental_readout: IC50

API: value(readout=IC50, system=UniProt P49841) for record CC[C@]1(c2cccc(-c3ccnn3C)c2)C2=CN=NC2NC2=C1C(=O)N[C@@]1(CCOC1)C2 (stereo partly specified)
< 0.1 µM

Checklist item: IC50 tested on UniProt P49841, entry `CC(C)[C@H]1C[C@@]2(CCO1)C1=C(N=NC1)NC1=C2C(=O)CC(C)(C)C1` , value?
> 5 µM

IC50 of CC[C@]1(c2cccc(S(=O)(=O)C(C)C)c2)C2=C(CC(C)(C)NC2=O)NC2N=NC(C(F)(F)F)=C21 (stereo partly specified) on UniProt P49841?
< 0.1 µM

Please provide the recorded IC50 for CC[C@]1(c2cccc(-c3ccnnc3)c2)C2=CN=NC2NC2=C1C(=O)CC(C)(C)C2 (stereo partly specified) , tested on UniProt P49841.
> 5 µM

Under UniProt P49841: IC50 value of CC[C@]1(c2cccc(C(F)(F)F)c2)C2=CN=NC2NC2=C1C(=O)N(C)C[C@@H]2C (stereo partly specified) ?
< 0.1 µM

Can you look up IC50 on UniProt P49841 for CC[C@]1(c2cccc(Nc3ncccn3)c2)C2=CN=NC2NC2=C1C(=O)CC(C)(C)C2 (stereo partly specified) ?
0.1 to 1 µM
